# TEST_SETTINGS: in acetone, 288.15 K
REPORTED_METRIC: solubility (mole fraction)
One number for each entry.

I would be grateful if you could share the reported solubility (mole fraction) for "CC(C)(C)OC(=O)N[C@@H](CCC(N)=O)C(=O)O" .
0.0675

====

# TEST_SETTINGS: in ethyl acetate, 323.15 K
REPORTED_METRIC: solubility (mole fraction)
One number for each entry.

Please give the measured solubility (mole fraction) for this compound: "CC(C)(C)OC(=O)N[C@@H](CCC(N)=O)C(=O)O"
0.0145

====

# TEST_SETTINGS: in n-pentanol, 288.15 K
REPORTED_METRIC: solubility (mole fraction)
Answers are plain numbers.

Item under review: "CC(C)(C)OC(=O)N[C@@H](CCC(N)=O)C(=O)O" . Reported solubility (mole fraction)?
0.0352

====

# TEST_SETTINGS: in acetonitrile, 303.15 K
REPORTED_METRIC: solubility (mole fraction)
Numbers only.

Can you share its solubility (mole fraction)? I mean this compound: "CC(C)(C)OC(=O)N[C@@H](CCC(N)=O)C(=O)O"
0.008

====

# TEST_SETTINGS: in isobutanol, 313.15 K
REPORTED_METRIC: solubility (mole fraction)

Reported solubility (mole fraction), compound "CC(C)(C)OC(=O)N[C@@H](CCC(N)=O)C(=O)O" : ____
0.0843

====

# TEST_SETTINGS: in 2-butanone, 283.15 K
REPORTED_METRIC: solubility (mole fraction)
Answers are plain numbers.

Param item = "CC(C)(C)OC(=O)N[C@@H](CCC(N)=O)C(=O)O" ; retrieve measured solubility (mole fraction).
0.0208

The measured values listed here are drawn from BigSolDB 2.1.
